Hello, the source for this data is patent US20230348616A1, in case you need it.

- TESTED_TARGET: T1, HLA-A2 / homologous peptide P2RY8 complex on T2 cells (human)
- T1 construct: whole, on cells; also called T2 cells supplemented with homologous peptide P2RY8
- EXPERIMENT_SUMMARY: flow cytometry on peptide-pulsed T2 cells, scFv 100 nM;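 further: scFv binding read as gMFI and normalized to the level of HLA/peptide complex displayed on T2 cells, with homologous 9-mer peptides used to probe specificity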
REPORTED_METRIC: standardized gMFI
Give bare numbers.

Which standardized gMFI value belongs to NYA-2061 (scFv, also called NYA-2061 tag adduct) scFv: GEVQLVESGGGLVQPGGSLRLSCAASGFSIRSYDIHWVRQAPGKGLEWVATISYDGSQKYYADSVKGRFTISRDESKNTLYLQMNSLRAEDTAVYHCARGSSGHYEAFDIWGQGTLVTVSSGGGGSGGGGSGGGGSQSVLTQPPSASGTPGQRVTISCSGSSSNIGNWYVSWYQQLPGTAPKLLIYDNNKRPSGVPDRFSGSKSGTSASLAISGLQSEDEADYYCGTWDSSLSAPWVFGGGTKLTVLGAAAGAGGDYKDDDDKGAAAHHHHHH ?
0.57
